system: MS2 coat protein; experiment: apparent KD of MS2 coat protein; designed switch direction (-1 OFF switch, 1 ON switch): -1; higher = weaker reporter binding; conditions: input ligand: microRNA oligo, concentration not stated
Given measured apparent KD of MS2 coat protein, output rule met if it is greater than or equal to 0.1 µM and rule not met if not.

1. GCGGACUAGUACGUGAGUACUGAGACAUGAGGAUCACCCAUGUAGGAUAUCGAUUCGAAACGAAUCGAGAAGGGCAUAGUCCGC [JL denovo 10] (Eterna round: R96, puzzle: Exclusion NG 3): rule not met
2. ACAUGAGGAUCACCCAUGUCCGGCUGGUCUGUUUCGGCUGUCGAGGAUAUAGUUCGGUGUUCGCGCUAGAAGGUGGGAGCUGGC [Aenatbe mod 58] (Eterna round: R96, puzzle: Exclusion NG 3): rule met
3. GUGGGUUACAUGAGGAUCACCCAUGUAGAGUGGGAAGAGAGAUAGGAUAUGAUGUGAGAAUUAUAUUAGAAGGAUCGAGACUCG [AK ExNG3-2.5] (Eterna round: R96, puzzle: Exclusion NG 3): rule met
4. UAGUGAAACACAGGAUAUCGCCUCUUAUUACAUGAGGAUCACCCAUGUUUAGUUAGUUACAUGUACGAGAAGGGUGAAGUAGUU [JR_ExcNG2_Sub040] (Eterna round: R96, puzzle: Exclusion NG 2): rule met
5. GGGUGACAGUUAGGAUAUCUUAGCACGCCGUAGAGAGAAGGAACAUGAGGAUCACCCAUGUUGUAGUGCCUCCGGCACUGCUAG [Zaquata] (Eterna round: R96, puzzle: Exclusion NG 1): rule not met
6. CAACGAAGUCGAGGAUAUGCCCACUCCGCAGCGGCAGAAGGCGACAUGAGGAUCACCCAUGUAACGGCUAACGGGAUGGGAAGG [Eternabot solution 7] (Eterna round: R96, puzzle: Exclusion NG 1): rule not met
7. UUUAUAAUAAGAUCAAUUAAUUAACAUGAGGAUCACCCAUGUGAGGAUAUCAGCUCGAUUAGAGCUGAGAAGGCACAAUAUAAG [ExNG3/17-B1] (Eterna round: R96, puzzle: Exclusion NG 3): rule not met

* * *

test system: MS2 coat protein; test: apparent KD of MS2 coat protein; designed switch direction (-1 OFF switch, 1 ON switch): -1; higher = weaker reporter binding; details: input ligand: FMN 200 uM
Use met when the recorded apparent KD of MS2 coat protein is no lower than 20 nM; use not met when it is lower.

1. UAAUUAGCAAGUAGAUCCGACAUGAGGAUCACCCAUGUUAUCUGAAAGAACGCAGAAUAACUGUGAGCUCGUCUAAA [Sensor-V1 #1] (Eterna round: R97, puzzle: Sensor, turn-off variant 1): met
2. AAGUUGAAAGUCAGGAUAUCCAGACAAAAGUCAACGGAGAAGGGACUUGAGGAUCACCCAAGUGACCCUAAAUG [Usraleribe] (Eterna round: R97, puzzle: Brourd's mod of Exclusion 4): met
3. GUCACAUGGACAUAGGAUCACAUGAGGAUCACCCAUGUGACUAACAAGCUUUUUGUUCGUCUUAUGUCUAUGUGAAU [Stov1/16-B2] (Eterna round: R97, puzzle: Sensor, turn-off variant 1): not met
4. AUAGUCUGGCAAGGAUAUAGGAAAGGAAGUGUACUAGAAGGUGCGCAGACAUGAGGAUCACCCAUGUGAGCCGACGAAAUAAUA [PowerStrip EXNG 1.17] (Eterna round: R96, puzzle: Exclusion NG 1): met
5. AAACAAGCGUGAGGCUCGUCUUAAAAAGCCUCAUGAAAAACAUGAGGAUCACCCAUGUAAAAUGAUCGAAAGAUCAA [JL turnoff v2 29] (Eterna round: R96, puzzle: Sensor v2, turn-off variant 2): not met

* * *

tested on: K4 kissing-loop RNA reporter; assay: apparent KD of K4 kissing-loop reporter; higher = weaker reporter binding; conditions: Eterna round: R107; input ligand: theophylline 20 uM
Just so you know, the groups by apparent KD of K4 kissing-loop reporter go like this: low band (below 200 nM), middle band (200 nM to below 400 nM), high band (400 nM or more)

1. ACACUAUCGUCAUAGACGGUAGUGAAAAGUGAGGAUAUGAGUGAUGUUAGAAGGCACUAAGACUGUAUCGAAUAGAUACAGUCAA [FmnA 4 #K4BetweenAptamer #OpenEnded]: middle band
2. AGCUGUGGCAGAAGGAGCGACAGUUAUUCUGAUAGUACUCUGAGUGAUGUUCAGAACGACUGUCAGGUAGGUCGCUGUCACAGCU [#01 K4 Arginine B Exclusion]: low band
3. UUAUGUUUAGUUCACCCAGUGAUGUUGGAAGGAGCGUGCGAAAGCACAGGUAGGUCGCCAACCUUAAAGUGUCUUGAUUAUCUAA [JR_Nu_ExcArginiA_Sub029]: middle band
4. GUAGGAUGAGGAGGAGGAUGAAUUACUGAAGGAGCGCAUAGAAAUGCAGGUAGGUCGCGGUAAAGAAGUAUAGUGAUGUUAUAUA [SSArgA.F]: high band
5. AAAAUAAACCAGUGAUGUUGGUGUCCAGAUACCAGCGAUAAUAAUCGCCCUUGGCAGCUGCGGACGUACAAAAUAAGUACGUCCU [MatMod 11 - Jieux - Same State - Theophylline A]: middle band
6. GGCCGGUUGAAAGGCCGGCCAGAAACCGAAGGAGCGCGAAGAAACGCAGGUAGGUCGCGGAAAACAUGACCAGUGAUGUUGGUCG: low band
7. CUGGUUCAGUGAUGUUGGAAGGUUUAGGUGAAGGAUAUAUUGCAUAAUAGAAGGUCACGGCCAUGCAAUUAUUAACGUAGCCUGU [theeternabot_exclusion_KL_FMN_A_3]: low band
8. CGUAGUUGGGCGGCCGCCACUUGAACAGCUUUGCCAAAGGCAGAGCUCUAGAGUGAUGUUCUGGCAAGGACCGGGUCCAACUACA [#02 K4 Tryptophan B Same State]: high band
9. UAAGAGGACCACUGCAAGAGUCCUCGAAUACGAGGACCGGUACGGCCGCCACUCGAUAAUUUGCAGUGAUGUUGCAAGUAAGAAU [BrourdMod 5 - Jieux - Same State Tryptophan A]: low band
10. UGAUAGGACAGAAGGAGCGGUAGUGAUGUUGCCAAAAGAAUAAGGUGUCAAAAGACACCCUGCCAGGUAGGUCGCUGUCCUAUCU: low band
11. CGCGCGCGUUUGAGAGGGCGCGCGCGAAGUGAGGAUAUUUAGGGAGAAAGAAGGCACUAUAAAAUAUAGUGAUGUUAUAUAAGGG [SSFMNA.F]: high band
12. UCCAAUAUUUAUUGAUCCGCCUCGCAUCAACGAGGACCGGUACGGCCGCCACUCGUGCCUAGGUAGUGAUGUUACUUAGUUUACU [theeternabot_sameState_KL_Trp_A_32]: low band
13. AAAAUAAUCCAGUGAUGUUGGUAUCCAGAUACCAGCCACGAAAGUGGCCCUUGGCAGCUGUAGGACGUACAAAUAAGUACGUCCA [#OpenEnded 7 #StaticStem #K4Early]: high band
14. UGUAUGUGAUGUGAUACCAGUGAAGAGCCAGUGAUGUUGGUAGAACUGGUAUAUAAAUAACACCCUUGGCAGCACAGUCACGUAC [whbob_Ex_Theo_B_sa100]: middle band
15. CUGAUGCUGAUGCGGCGGCCGGUGGUCGUGCGAGGACCGGUACGGCCGCCACUCGCGCGAGUGAUGUUCGCGCGUCGUCGUCGUC [First Shot]: low band
16. AAUUUAUUAACUGAUACCAGACUUAAUGAAUUGUAAAUUACUAGUGAUGUUAGUGAAUCUGUCCCUUGGCAGCAGUAUUUAUUAA [JR_ExcTheophyB_Sub010]: middle band
17. AGACUACCACACUGUCAAUAGACAGUGUACUAGGAUAUGCUGAUAAGCAGAAGGAGUGAUGUUCCUUGGUAGUCAAUAAAAUAAU [FmnAX 13 U28+U67]: middle band
18. CCGCCGGUCGGAAGGAGCGCACGCCAGAGUGAUGUUCUGGCGCGGGCACUUUAUGCCCGCGUGCAGGUAGGUCGCCGAUUCUGGC [Mabema]: high band

* * *

tested on: K4 kissing-loop RNA reporter; test: apparent KD of K4 kissing-loop reporter; higher = weaker reporter binding; settings: Eterna round: R107; input ligand: tryptophan 2.4 mM;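 further: bound reporter read as fluorescence of individual clusters on recovered sequencing chips by microscopy, with normalized cluster intensities fitted with a binding model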
Answer not fulfilled if apparent KD of K4 kissing-loop reporter is under 300 nM, and fulfilled if it is 300 nM or more.

1) GCCGUAGAUGGAAGGAGCGUGGUGGACUCGUGAAGUGAUGUUUCAAGUCGUUAUGCCCAACCACAGGUAGGUCGCCAUCUACGGC: not fulfilled
2) UGAUGUUUAGUUCACCCAGUGAUGUUGGAAGGAGCGUGCGAAAGCACAGGUAGGUCGCCAACCUAAAAGUGUCUUGAUUAUCUAA [JR_Nu_ExcArginiA_Sub028]: not fulfilled
3) GGUACAGCGGAAGGAUAUCUGUCAUGGACGAUCGUAGCUUGAGCUCCCUGAGUGAUGUUUAGGAUGAGAGAAGGUCCACUCGUAU [theeternabot_exclusion_KL_FMN_B_2]: fulfilled
4) CUGUCCUACGAAGGAUAUGCUGAUGGGAUCAAACAGUGAUGUUGUUAUGAACUUAGGCUUAUGUGCGCAGAAGGUCGUGGCGACG [theeternabot_sameState_KL_FMN_B_42]: fulfilled
5) UUAUGUUUAGUUCACCCAGUGAUGUUGGAAGGAGCGUGCGAAAGCACAGGUAGGUCGCCAACCUUAAAGUGUCUUGAUUAUCUAA [JR_Nu_ExcArginiA_Sub029]: fulfilled
6) GUAGCACUUGGUAGUGAUGUUACCAAGGACAAGGAUAUCAUCUCAAUGAGAAGGUGUCCUUGGUAACAGCUACGGGAAUAUCCCA [Omei KL FMN A Exc D v2]: not fulfilled
